Consider the following sequences and their measured mAb 35 binding relative to binding to the Torpedo 39MIR readings.
System: mAb 35
Assay: Western blot of peptide-IChBD fusion proteins probed with mAb 35
Assay type: binding, rat
Details: FIG. 5 Western blots, Torpedo 39MIR single mutants
Quantity Name: mAb 35 binding relative to binding to the Torpedo 39MIR (×)

Residue Sequence	Observed Result
SEHETRLVANLLGGGSLRWNPADYGGIKKIHGSLDYTGK (synthetic main immunogenic region (MIR) peptide) [Mutant R79H, Torpedo 39MIR single mutant (R79H)]	1.91
SEHETRLVANLLGGGSLRWNPDDYGGIKKIRGSLDYTGK (synthetic main immunogenic region (MIR) peptide) [Mutant A70D, Torpedo 39MIR single mutant (A70D)]	0.93
SEHETRLVANLFGGGSLRWNPADYGGIKKIRGSLDYTGK (synthetic main immunogenic region (MIR) peptide) [Mutant L12F, Torpedo 39MIR single mutant (L12F)]	1.42
SEHETRLVAKLLGGGSLRWNPADYGGIKKIRGSLDYTGK (synthetic main immunogenic region (MIR) peptide) [Mutant N10K, Torpedo 39MIR single mutant (N10K)]	0.29
SEHETRLVANLLGGGSLKWNPADYGGIKKIRGSLDYTGK (synthetic main immunogenic region (MIR) peptide) [Mutant R66K, Torpedo 39MIR single mutant (R66K)]	0.62

---

Tested on: mAb 198
Experiment: Western blot of peptide-IChBD fusion proteins probed with mAb 198
Type: binding, rat
Details: Table 3, single-substitution human 39MIR mutants
Under this convention, yes (1) denotes mAb 198, fold-change in binding relative to Torpedo 39MIR strictly below 0.7 fold-change and no (0) denotes mAb 198, fold-change in binding relative to Torpedo 39MIR at or above 0.7 fold-change.

Residue Sequence	Class Name
SEHETRLVAKLFGGGSLKWNPDDYGGVKKIHGSLQYTGH (synthetic main immunogenic region (MIR) peptide) [Human 39MIR]	yes (1)
SEHETRLVAKLFGGGSLKWNPADYGGVKKIHGSLQYTGH (synthetic main immunogenic region (MIR) peptide) [Mutant D70A, Human 39MIR single mutant (D70A)]	yes (1)
SEHETRLVAKLFGGGSLKWNPDDYGGVKKIHGSLDYTGH [Q111D] (synthetic main immunogenic region (MIR) peptide) [Mutant Q111D, Human 39MIR single mutant (Q111D)]	yes (1)
SEHETRLVANLLGGGSLRWNPADYGGIKKIRGSLDYTGK [Torpedo 39MIR]	no (0)
SEHETRLVANLFGGGSLKWNPDDYGGVKKIHGSLQYTGH (synthetic main immunogenic region (MIR) peptide) [Mutant K10N, Human 39MIR single mutant (K10N)]	yes (1)
SEHETRLVAKLFGGGSLKWNPDDYGGIKKIHGSLQYTGH (synthetic main immunogenic region (MIR) peptide) [Mutant V75I, Human 39MIR single mutant (V75I)]	yes (1)
